Entries and their IC50 values follow.
Target: hSCN3A sodium channels (Homo sapiens)
Construct: expressed in transfected cells
Experiment: hSCN3A electrophysiology, whole-cell patch-clamp or PatchXpress 7000, estimated IC-50 (Table B)
Type: cell-based
Conditions: estimated IC-50; hSCN3A cells, whole-cell patch-clamp or PatchXpress 7000; read-out: SCN3A EIC-50
Field format: number, assumed nM, no unit text.

>>> df
                                   compound  observed_measurement
0  O=C(NCc1cccc(C(F)(F)F)c1F)c1ccc(S(=O)(=O)Nc2ncc(Cl)s2)cc1                   210
1  O=C(NCc1ccc(F)c(Cl)c1)c1ccc(S(=O)(=O)Nc2nccs2)cc1                   170
2  O=C(NCc1ccc(F)c(C(F)(F)F)c1)c1ccc(S(=O)(=O)Nc2ncc(Cl)s2)c(F)c1                   140
3  O=C(NCc1ccc(F)c(OC(F)(F)F)c1)c1ccc(S(=O)(=O)Nc2nccs2)cc1F                   900
4  O=C(NCc1ccc(C(F)(F)F)cc1)c1ccc(S(=O)(=O)Nc2ncns2)cc1                   260

Field request: IC50 | item: `O=C(NCc1ccc(F)c(C(F)(F)F)c1)c1ccc(S(=O)(=O)Nc2ncc(Cl)s2)cc1` 90

Same question, `O=C(NCc1ccccc1SC(F)(F)F)c1ccc(S(=O)(=O)Nc2nccs2)cc1` this time 1300

Same question, CC(NC(=O)c1ccc(S(=O)(=O)Nc2ncc(Cl)s2)cc1)c1ccc(C(F)(F)F)cc1 (centres unmarked) this time 270

Same question, `O=C(N[C@H]1C[C@@H]1c1ccccc1)c1ccc(S(=O)(=O)Nc2ncc(Cl)s2)cc1` this time 510

---

Entries and their log10(IC50) values follow.
Molecular target: hSCN3A sodium channels (Homo sapiens, UniProt Q9NY46)
Construct: expressed in transfected cells
Sequence (Q9NY46 whole entry): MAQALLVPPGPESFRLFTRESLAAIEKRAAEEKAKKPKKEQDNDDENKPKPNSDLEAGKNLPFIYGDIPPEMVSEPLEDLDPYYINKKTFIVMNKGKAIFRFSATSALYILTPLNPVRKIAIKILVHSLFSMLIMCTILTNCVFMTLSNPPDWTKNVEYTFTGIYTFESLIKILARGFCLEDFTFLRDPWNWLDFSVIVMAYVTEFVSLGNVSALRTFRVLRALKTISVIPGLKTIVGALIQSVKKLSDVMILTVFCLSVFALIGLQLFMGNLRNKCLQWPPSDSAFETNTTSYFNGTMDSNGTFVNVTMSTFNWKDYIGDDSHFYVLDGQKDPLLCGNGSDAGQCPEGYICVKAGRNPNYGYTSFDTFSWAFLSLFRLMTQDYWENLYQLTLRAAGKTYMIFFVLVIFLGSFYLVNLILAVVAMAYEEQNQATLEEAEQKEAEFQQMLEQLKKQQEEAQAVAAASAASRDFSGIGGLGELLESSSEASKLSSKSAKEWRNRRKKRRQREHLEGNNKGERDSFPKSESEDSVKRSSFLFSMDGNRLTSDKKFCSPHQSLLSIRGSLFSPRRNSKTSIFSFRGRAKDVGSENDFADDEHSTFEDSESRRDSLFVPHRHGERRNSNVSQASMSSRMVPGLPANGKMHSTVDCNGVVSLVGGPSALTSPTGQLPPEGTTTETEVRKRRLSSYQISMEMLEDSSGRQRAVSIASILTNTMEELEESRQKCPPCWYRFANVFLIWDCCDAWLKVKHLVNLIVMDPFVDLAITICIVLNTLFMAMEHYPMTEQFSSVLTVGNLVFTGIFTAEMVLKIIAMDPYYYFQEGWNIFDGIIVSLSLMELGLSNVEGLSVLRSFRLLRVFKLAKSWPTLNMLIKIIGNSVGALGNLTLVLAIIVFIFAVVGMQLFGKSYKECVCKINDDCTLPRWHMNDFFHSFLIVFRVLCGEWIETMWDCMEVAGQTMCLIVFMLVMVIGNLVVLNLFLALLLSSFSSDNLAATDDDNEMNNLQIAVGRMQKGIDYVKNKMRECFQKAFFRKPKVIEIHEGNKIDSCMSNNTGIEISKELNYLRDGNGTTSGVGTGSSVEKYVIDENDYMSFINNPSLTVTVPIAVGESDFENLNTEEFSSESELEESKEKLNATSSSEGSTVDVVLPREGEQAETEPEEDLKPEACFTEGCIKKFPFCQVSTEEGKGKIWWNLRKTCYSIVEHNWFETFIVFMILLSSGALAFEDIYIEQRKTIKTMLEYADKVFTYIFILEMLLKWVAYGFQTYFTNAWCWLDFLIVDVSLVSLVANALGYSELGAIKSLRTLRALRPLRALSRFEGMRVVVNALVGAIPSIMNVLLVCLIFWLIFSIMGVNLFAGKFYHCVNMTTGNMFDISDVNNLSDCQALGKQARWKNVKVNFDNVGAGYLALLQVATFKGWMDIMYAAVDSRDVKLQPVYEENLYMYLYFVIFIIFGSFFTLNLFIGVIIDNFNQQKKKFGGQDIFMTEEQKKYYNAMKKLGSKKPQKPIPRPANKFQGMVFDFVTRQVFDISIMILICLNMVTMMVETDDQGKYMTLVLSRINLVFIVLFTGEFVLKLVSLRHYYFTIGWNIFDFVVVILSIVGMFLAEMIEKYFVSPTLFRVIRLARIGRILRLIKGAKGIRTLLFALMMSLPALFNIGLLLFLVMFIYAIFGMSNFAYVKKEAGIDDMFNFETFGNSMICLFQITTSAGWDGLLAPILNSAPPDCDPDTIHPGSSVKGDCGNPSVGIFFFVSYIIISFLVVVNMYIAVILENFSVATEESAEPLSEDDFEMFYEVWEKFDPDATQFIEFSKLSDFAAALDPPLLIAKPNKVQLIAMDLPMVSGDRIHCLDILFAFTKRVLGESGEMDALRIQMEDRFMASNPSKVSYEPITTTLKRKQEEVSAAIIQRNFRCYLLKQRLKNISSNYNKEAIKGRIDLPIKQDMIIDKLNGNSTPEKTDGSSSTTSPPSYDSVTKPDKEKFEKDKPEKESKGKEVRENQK
Assay: hSCN3A electrophysiology, whole-cell patch-clamp or PatchXpress 7000, estimated IC-50 (Table B)
Format: cell-based
Conditions: estimated IC-50; hSCN3A cells, whole-cell patch-clamp or PatchXpress 7000; read-out: SCN3A EIC-50
Recorded IC50 (log10, nM)

>>> df
                                   molecule       metric  observed_measurement
0  O=C(NCc1cc(F)cc(F)c1)c1ccc(S(=O)(=O)Nc2nccs2)cc1  log10(IC50)                  2.79
1  O=C(NCc1ccc(OC(F)(F)F)c(F)c1)c1ccc(S(=O)(=O)Nc2nccs2)cc1  log10(IC50)                  1.95

Field request: log10(IC50) | item: `O=C(NCc1ccc(C(F)(F)F)c(F)c1)c1ccc(S(=O)(=O)Nc2nccs2)cc1F` 2.32

Same question, `O=C(NCc1ccc(Cl)c(Cl)c1)c1ccc(S(=O)(=O)Nc2nccs2)cc1` this time 2.04

Same question, `COC(=O)c1csc(NS(=O)(=O)c2ccc(C(=O)NCc3ccc(C(F)(F)F)cc3)cc2)n1` this time 3.47

Same question, `O=C(NCCc1ccccc1Cl)c1ccc(S(=O)(=O)Nc2nccs2)cc1` this time 2.96

Same question, `COc1ccc(CNC(=O)c2ccc(S(=O)(=O)Nc3nccs3)cc2)cc1C(F)(F)F` this time 2.43

Same question, `O=C(NCc1ccc(F)c(F)c1)c1ccc(S(=O)(=O)Nc2ncc(Cl)s2)c(Cl)c1` this time 3.11

Same question, `O=C(NCc1ccc(C(F)(F)F)c(F)c1)c1ccc(S(=O)(=O)Nc2ncns2)cc1Cl` this time 2.65

Same question, `O=C(NCc1ccc(F)c(F)c1)c1ccc(S(=O)(=O)Nc2ncc(Cl)s2)c(F)c1` this time 2.15

Same question, `O=C(NCc1cccc(OC(F)(F)F)c1)c1ccc(S(=O)(=O)Nc2nccs2)cc1` this time 2.26

Same question, `O=C(NCc1ccc(Cl)c(Cl)c1)c1ccc(S(=O)(=O)Nc2ncc(Cl)s2)c(Cl)c1` this time 2.60

Same question, `O=C(NCc1cccc(C(F)(F)F)c1)c1ccc(S(=O)(=O)Nc2ncc(Cl)s2)cc1` this time 2.38

Same question, `Cc1c(Cl)cccc1CNC(=O)c1ccc(S(=O)(=O)Nc2nccs2)cc1` this time 2.20

Same question, `O=C(NCc1ccc(OC(F)(F)F)cc1)c1ccc(S(=O)(=O)Nc2nccs2)cc1F` this time 2.11

Same question, `O=C(NCc1ccc(F)c(OC(F)(F)F)c1)c1ccc(S(=O)(=O)Nc2ncc(Cl)s2)c(Cl)c1` this time 3.18
